I'd appreciate it if you could supply pest or weed control at 70 g/ha values for the items below.
# System: Key Grass and Sedge Weeds as well as Grass Crops
# EXPERIMENT: Post-emergent Test II herbicidal activity (Table 6)
# Format: in vivo
# CONDITION DETAILS: post-emergence, 336 h, DIGSA: crabgrass (Digitaria sanguinalis), application rate 70 g ai/ha, read-out: Visual Growth Reduction (%) 14 Days After Application, DIGSA
# Source text: Post-emergent Test II: Seeds or nutlets of the desired test plant species were planted in Sun Gro Metro-Mix® 360 planting mixture, which typically has a pH of 6.0 to 6.8 and an organic matter content of about 30 percent, in plastic pots with a surface area of 64 square centimeters. When required to ensure good germination and healthy plants, a fungicide treatment and/or other chemical or physical treatment was applied. […]

q: Quick one: pest or weed control at 70 g/ha of C=Cc1c(C(=O)O)nc(-c2ccc(C(F)(F)F)c(F)c2F)c(F)c1N ?
a: 0 to 29%

q: Try this compound too: C#Cc1ccc(-c2cc(N)c(Cl)c(C(=O)OC)n2)cc1
a: 75 to 84%

q: Try this compound too: Cc1c(-c2ccc(Br)cc2)nc(C(=O)O)c(Cl)c1N
a: 0 to 29%

q: Try this compound too: COc1c(N)nc(-c2cc(F)c(C)cc2F)nc1C(=O)O
a: 0 to 29%

q: Try this compound too: COC(=O)c1nc(-c2cc(F)c(Br)cc2F)cc(N)c1Cl
a: 85 to 94%

q: Try this compound too: C=Cc1c(C(=O)O)nc(-c2ccc(Br)cc2)c(F)c1N
a: 0 to 29%

q: Try this compound too: Nc1cc(-c2cc(F)c(OC(F)F)cc2F)nc(C(=O)O)c1Cl
a: 0 to 29%

q: Try this compound too: C#Cc1ccc(-c2nc(C(=O)OC)c(Cl)c(N)c2Cl)cc1
a: 0 to 29%

q: Try this compound too: C#Cc1ccc(-c2nc(C(=O)O)c(C=C)c(N)c2F)cc1
a: 0 to 29%

q: Try this compound too: C=Cc1c(N)nc(-c2ccc(C#N)cc2F)nc1C(=O)O
a: 0 to 29%

q: Try this compound too: C#Cc1ccc(-c2nc(C(=O)OC)c(C=C)c(N)c2F)cc1
a: 0 to 29%

q: Try this compound too: Nc1c(Cl)c(C(=O)O)nc(-c2ccc(C(F)(F)F)c(F)c2)c1Cl
a: 60 to 74%

q: Try this compound too: COc1c(N)nc(-c2ccc(C(F)(F)F)c(F)c2)nc1C(=O)O
a: 60 to 74%

q: Try this compound too: Nc1c(F)c(-c2ccc(OC(F)F)c(F)c2F)nc(C(=O)O)c1Cl
a: 0 to 29%

q: Try this compound too: COC(=O)c1nc(-c2cc(F)c(I)cc2F)c(Br)c(N)c1Cl
a: 45 to 59%

q: Try this compound too: COC(=O)c1nc(-c2cc(F)c(C)cc2F)c(F)c(N)c1Cl
a: 0 to 29%

q: Try this compound too: Nc1cc(-c2ccc(I)c(F)c2F)nc(C(=O)O)c1Cl
a: 75 to 84%

q: Try this compound too: COc1c(N)nc(-c2ccc(I)c(F)c2)nc1C(=O)O
a: 45 to 59%

q: Try this compound too: COC(=O)c1nc(-c2cc(F)c(OC(F)F)cc2F)cc(N)c1Cl
a: 0 to 29%
